target: T1, rhesus c-Met on 4MBr-5 cells (rhesus, UniProt F7H1K4 25-1381, Natural c-Met is cleaved at the furin site (KRKKR/S) into disulphide-linked alpha and beta subunits; given here as one mature polypeptide.)
T1 construct: also called rhesus c-Met antigen
T1 sequence (F7H1K4 entry or part of it limits assumed): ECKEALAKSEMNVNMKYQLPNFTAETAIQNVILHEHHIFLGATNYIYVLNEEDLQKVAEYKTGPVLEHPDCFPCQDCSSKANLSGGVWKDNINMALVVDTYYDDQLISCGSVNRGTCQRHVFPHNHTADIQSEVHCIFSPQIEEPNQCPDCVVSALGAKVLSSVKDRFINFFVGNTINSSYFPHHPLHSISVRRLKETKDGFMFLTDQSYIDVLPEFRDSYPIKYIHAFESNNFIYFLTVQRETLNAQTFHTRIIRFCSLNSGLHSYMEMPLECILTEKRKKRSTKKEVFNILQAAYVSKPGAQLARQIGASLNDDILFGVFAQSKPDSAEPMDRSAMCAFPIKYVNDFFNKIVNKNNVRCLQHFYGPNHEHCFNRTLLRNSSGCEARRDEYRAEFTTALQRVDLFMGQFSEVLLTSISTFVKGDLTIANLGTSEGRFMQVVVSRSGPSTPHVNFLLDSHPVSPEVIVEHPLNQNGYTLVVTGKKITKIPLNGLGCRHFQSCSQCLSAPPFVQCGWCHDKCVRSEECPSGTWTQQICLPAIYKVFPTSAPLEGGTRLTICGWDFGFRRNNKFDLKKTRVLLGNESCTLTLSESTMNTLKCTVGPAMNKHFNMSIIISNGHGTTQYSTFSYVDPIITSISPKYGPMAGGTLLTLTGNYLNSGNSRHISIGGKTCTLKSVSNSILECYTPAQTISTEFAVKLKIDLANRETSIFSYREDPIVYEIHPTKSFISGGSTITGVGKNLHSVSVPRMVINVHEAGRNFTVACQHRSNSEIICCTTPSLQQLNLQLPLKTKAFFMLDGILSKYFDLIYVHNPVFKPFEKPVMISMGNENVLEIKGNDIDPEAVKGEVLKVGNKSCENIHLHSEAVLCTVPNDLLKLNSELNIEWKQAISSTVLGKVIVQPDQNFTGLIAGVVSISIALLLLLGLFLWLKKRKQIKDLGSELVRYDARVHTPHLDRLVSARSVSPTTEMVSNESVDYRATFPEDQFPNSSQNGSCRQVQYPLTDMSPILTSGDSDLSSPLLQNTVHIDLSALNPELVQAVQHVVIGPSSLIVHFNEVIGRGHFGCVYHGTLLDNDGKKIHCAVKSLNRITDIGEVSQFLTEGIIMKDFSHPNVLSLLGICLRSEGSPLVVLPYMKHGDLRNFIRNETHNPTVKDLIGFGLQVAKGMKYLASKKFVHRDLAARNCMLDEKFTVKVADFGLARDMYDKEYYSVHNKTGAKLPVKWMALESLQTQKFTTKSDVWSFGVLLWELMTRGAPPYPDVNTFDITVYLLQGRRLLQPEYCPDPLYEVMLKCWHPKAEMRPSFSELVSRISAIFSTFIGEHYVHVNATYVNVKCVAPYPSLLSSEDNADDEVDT
assay_name: flow cytometry, 4MBr-5 cells; EC50 with 50 ng/mL HGF against EC50 without HGF
assay_metric: Fold shift (HGF) (fold)
Express your answer in fold, writing the number without its unit.

binder: mAb1a (antibody, human IgG1, kappa, V domains shown, Humanized IgG1 kappa, HC-41C, from wt/41C-chi-mAb1; also called humanized HC-41C antibody mAb1a; mAbla) VH: QVQLVQSGAEVKKPGASVKVSCKASGYIFTDYFMNWVRQACGQGLEWMGRVNPKNGDITYNQKFRGRVSLTKDTSINTAYMELSGLTSDDTAIYYCAYDGYYDGMDFWGQGTSVTVSS VL: ELVMTQSPSSLSASVGDRVTITCRANSSVSSNFLHWYQQKPGKAPKLLISSTSNLAFGVPSRFSGTGSGTDFSLTISSLQPEDFAIYYCHQYSGHPFTFGQGTKLEIKR
readout_unit: fold
recorded_result: 1.1

Query mAb2c (antibody, human IgG1, kappa, V domains shown, Humanized IgG1 kappa, HC-41C, from wt/41C-chi-mAb2; also called humanized HC-41C antibody mAb2c) VH: QVQLVQSGAEVKKPGSSVKVSCKASGYVFPDYEMHWVRQACGQGLEWMGAFDPETGDTTYNQNFKGRVTITADKSTSTAYMELSSLRSEDTAVYYCARDYKYLYYYAMDNWGQGTTVTVSS VL: EIVLTQSPSLLSASIGDRVTIPCTASSSITSSYLHWYQQKPGKAPKLLIYSTTNLASGVPSRFSGSGSGTEFTLTISSLQPEDFATYYCHQYRRSPLTFGGGTKLEIKR yields Fold shift (HGF) of 1.2

Query mAb3c (antibody, human IgG1, kappa, V domains shown, Humanized IgG1 kappa, HC-41C, from wt/41C-chi-mAb3; also called humanized HC-41C antibody mAb3c) VH: QVQLVQSGAEVKKPGASVKVSCKASGYTFTDYYLNWVRQACGQGLEWMGLIFPGNDKTEYSEKFKGRVTLTTDTSISTAYMELSSLTSDDTALYYCSGGDYGGFVYWGQGTLVTVSS VL: DIQMTQSPSSLSASVGDRVTITCGASENIYGALNWYQQKPGKAPKLLIYGATNLADGVPSRFSGSGSGTDFTLTISSLQPEDVATYYCQNVLSSPLTFGSGTKLEIKR yields Fold shift (HGF) of 1.7

Source of measurements: patent US20240376214A1
